Molecular target: S100B (Homo sapiens)
Construct: made in house; host or cells: Escherichia coli BL21(DE3)
Sequence (P04271 whole entry): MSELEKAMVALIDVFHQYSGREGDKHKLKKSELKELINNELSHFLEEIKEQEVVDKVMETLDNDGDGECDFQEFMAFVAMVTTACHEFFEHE
Assay: Pull-down assay with immobilized protein and LSM libraries
Assay type: binding
Settings: H12 library; 1:1 binding assumed; read-out: Surface mapping KD (apparent)
Kd values for the compounds below.
parameterMeasured: Kd (µM)

>  <smilesRepresentation>
CSCC[C@@H](CC(=O)N[C@H]1CCC[C@@H]1C(=O)N[C@H]1CCC[C@@H]1C(=O)N[C@@H](CCC(=O)O)CC(=O)N[C@H]1CCC[C@@H]1C(=O)N[C@H]1CCC[C@@H]1C(N)=O)NC(=O)[C@H]1CCC[C@@H]1NC(=O)[C@H]1CCC[C@@H]1N

>  <quantitativeResult>
417

$$$$
>  <smilesRepresentation>
N=C(N)NCCC[C@@H](CC(=O)N[C@H]1CCC[C@@H]1C(=O)N[C@H]1CCC[C@@H]1C(N)=O)NC(=O)[C@H]1CCC[C@@H]1NC(=O)[C@H]1CCC[C@@H]1NC(=O)C[C@H](CCCCN)NC(=O)[C@H]1CCC[C@@H]1NC(=O)[C@H]1CCC[C@@H]1N

>  <quantitativeResult>
146

$$$$
>  <smilesRepresentation>
C[C@@H](CC(=O)N[C@H]1CCC[C@@H]1C(=O)N[C@H]1CCC[C@@H]1C(N)=O)NC(=O)[C@H]1CCC[C@@H]1NC(=O)[C@H]1CCC[C@@H]1NC(=O)C[C@H](CCCNC(=N)N)NC(=O)[C@H]1CCC[C@@H]1NC(=O)[C@H]1CCC[C@@H]1N

>  <quantitativeResult>
205

$$$$
>  <smilesRepresentation>
C[C@@H](O)[C@@H](CC(=O)N[C@H]1CCC[C@@H]1C(=O)N[C@H]1CCC[C@@H]1C(N)=O)NC(=O)[C@H]1CCC[C@@H]1NC(=O)[C@H]1CCC[C@@H]1NC(=O)C[C@H](Cc1ccccc1)NC(=O)[C@H]1CCC[C@@H]1NC(=O)[C@H]1CCC[C@@H]1N

>  <quantitativeResult>
86

$$$$

----------
Biological target: Gal-1 (Homo sapiens, UniProt P09382)
Construct: made in house; host or cells: E. coli BL21(DE3)
Sequence (P09382 whole entry): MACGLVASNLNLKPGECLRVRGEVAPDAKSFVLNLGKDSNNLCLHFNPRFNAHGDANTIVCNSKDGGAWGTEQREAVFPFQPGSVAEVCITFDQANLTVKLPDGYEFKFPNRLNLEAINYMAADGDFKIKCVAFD
Assay: Pull-down assay with immobilized protein and LSM libraries
Format: binding
Conditions: H12 library; 1:1 binding assumed; read-out: Surface mapping KD (apparent)
Kd values for the compounds below.
parameterMeasured: Kd (µM)

>  <smilesRepresentation>
CC(C)C[C@@H](CC(=O)N[C@H]1CCC[C@@H]1C(=O)N[C@H]1CCC[C@@H]1C(N)=O)NC(=O)[C@H]1CCC[C@@H]1NC(=O)[C@H]1CCC[C@@H]1NC(=O)C[C@H](CCCCN)NC(=O)[C@H]1CCC[C@@H]1NC(=O)[C@H]1CCC[C@@H]1N

>  <parameterMeasured>
Kd

>  <quantitativeResult>
316

$$$$
>  <smilesRepresentation>
NCCCC[C@@H](CC(=O)N[C@H]1CCC[C@@H]1C(=O)N[C@H]1CCC[C@@H]1C(=O)N[C@@H](CCC(N)=O)CC(=O)N[C@H]1CCC[C@@H]1C(=O)N[C@H]1CCC[C@@H]1C(N)=O)NC(=O)[C@H]1CCC[C@@H]1NC(=O)[C@H]1CCC[C@@H]1N

>  <parameterMeasured>
Kd

>  <quantitativeResult>
293

$$$$
>  <smilesRepresentation>
NC(=O)[C@H]1CCC[C@@H]1NC(=O)[C@H]1CCC[C@@H]1NC(=O)C[C@H](CC(=O)O)NC(=O)[C@H]1CCC[C@@H]1NC(=O)[C@H]1CCC[C@@H]1NC(=O)C[C@H](CC(=O)O)NC(=O)[C@H]1CCC[C@@H]1NC(=O)[C@H]1CCC[C@@H]1N

>  <parameterMeasured>
Kd

>  <quantitativeResult>
372

$$$$
>  <smilesRepresentation>
CSCC[C@@H](CC(=O)N[C@H]1CCC[C@@H]1C(=O)N[C@H]1CCC[C@@H]1C(N)=O)NC(=O)[C@H]1CCC[C@@H]1NC(=O)[C@H]1CCC[C@@H]1NC(=O)C[C@H](CC(=O)O)NC(=O)[C@H]1CCC[C@@H]1NC(=O)[C@H]1CCC[C@@H]1N

>  <parameterMeasured>
Kd

>  <quantitativeResult>
218

$$$$
>  <smilesRepresentation>
CC(C)C[C@@H](CC(=O)N[C@H]1CCC[C@@H]1C(=O)N[C@H]1CCC[C@@H]1C(N)=O)NC(=O)[C@H]1CCC[C@@H]1NC(=O)[C@H]1CCC[C@@H]1NC(=O)C[C@H](Cc1ccccc1)NC(=O)[C@H]1CCC[C@@H]1NC(=O)[C@H]1CCC[C@@H]1N

>  <parameterMeasured>
Kd

>  <quantitativeResult>
114

$$$$
>  <smilesRepresentation>
NC(=O)[C@H]1CCC[C@@H]1NC(=O)[C@H]1CCC[C@@H]1NC(=O)C[C@H](CCC(=O)O)NC(=O)[C@H]1CCC[C@@H]1NC(=O)[C@H]1CCC[C@@H]1NC(=O)C[C@H](CCC(=O)O)NC(=O)[C@H]1CCC[C@@H]1NC(=O)[C@H]1CCC[C@@H]1N

>  <parameterMeasured>
Kd

>  <quantitativeResult>
349

$$$$
